target: ABCB1 efflux pump (Homo sapiens, UniProt P08183); experiment: Rhodamine 123 accumulation assay (flow cytometry); conditions: concentration 20 µM; FAR of compound related to FAR of VER tested at 20 µM
Sequence (P08183 whole entry): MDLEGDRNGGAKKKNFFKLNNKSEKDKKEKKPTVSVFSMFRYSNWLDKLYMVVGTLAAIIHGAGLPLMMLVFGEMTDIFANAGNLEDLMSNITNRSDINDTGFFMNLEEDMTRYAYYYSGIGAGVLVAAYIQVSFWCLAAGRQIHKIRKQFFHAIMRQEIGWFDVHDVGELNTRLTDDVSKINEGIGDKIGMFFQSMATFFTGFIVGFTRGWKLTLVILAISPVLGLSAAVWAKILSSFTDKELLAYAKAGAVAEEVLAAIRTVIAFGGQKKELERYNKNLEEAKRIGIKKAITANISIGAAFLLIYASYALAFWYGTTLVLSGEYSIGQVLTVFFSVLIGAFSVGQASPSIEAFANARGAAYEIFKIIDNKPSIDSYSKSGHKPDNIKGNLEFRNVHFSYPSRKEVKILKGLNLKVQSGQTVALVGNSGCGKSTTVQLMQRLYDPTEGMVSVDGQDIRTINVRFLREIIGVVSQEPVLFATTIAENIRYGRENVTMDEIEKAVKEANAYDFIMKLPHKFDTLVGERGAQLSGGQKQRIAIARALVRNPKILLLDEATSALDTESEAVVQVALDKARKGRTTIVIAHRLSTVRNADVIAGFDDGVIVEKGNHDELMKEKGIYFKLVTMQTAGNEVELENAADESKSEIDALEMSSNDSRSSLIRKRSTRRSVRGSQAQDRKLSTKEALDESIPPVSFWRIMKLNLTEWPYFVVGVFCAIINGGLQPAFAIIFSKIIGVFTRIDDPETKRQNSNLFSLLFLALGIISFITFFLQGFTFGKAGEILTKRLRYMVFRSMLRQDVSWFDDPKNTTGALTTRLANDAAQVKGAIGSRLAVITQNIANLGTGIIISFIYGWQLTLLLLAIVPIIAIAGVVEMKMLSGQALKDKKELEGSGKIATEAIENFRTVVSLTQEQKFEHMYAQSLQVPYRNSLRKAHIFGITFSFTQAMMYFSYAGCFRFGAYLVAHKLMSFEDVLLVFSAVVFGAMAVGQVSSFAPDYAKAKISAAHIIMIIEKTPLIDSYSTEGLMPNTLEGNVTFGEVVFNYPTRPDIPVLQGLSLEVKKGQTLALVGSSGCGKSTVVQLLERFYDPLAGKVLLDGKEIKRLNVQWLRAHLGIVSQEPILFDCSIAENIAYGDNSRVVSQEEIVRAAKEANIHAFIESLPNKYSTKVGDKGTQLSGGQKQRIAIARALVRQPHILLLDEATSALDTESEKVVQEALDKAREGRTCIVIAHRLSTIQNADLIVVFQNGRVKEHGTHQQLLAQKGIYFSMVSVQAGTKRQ
# reported FAR Quotient (%); entries follow
Give me the value, and tack the unit on after it.

Here is how some molecules turned out for FAR Quotient (%).
SUBSTANCE_SMILES: Cl.O=C1N=C(N2CCC(N3CCOCC3)CC2)N/C1=C\c1cccc(Oc2ccccc2)c1
MEASURED_TARGET: ABCB1 efflux pump (Homo sapiens, UniProt P08183)
FAR Quotient (%): 12.44%
--
SUBSTANCE_SMILES: Cl.NC1=N/C(=C\c2cc3ccccc3c3ccccc23)C(=O)N1CCCN1CCOCC1
MEASURED_TARGET: ABCB1 efflux pump (Homo sapiens, UniProt P08183)
FAR Quotient (%): 7.72%
--
SUBSTANCE_SMILES: Cl.O=C1N=C(N2CCC(N3CCOCC3)CC2)N/C1=C\c1c2ccccc2cc2ccccc12
MEASURED_TARGET: ABCB1 efflux pump (Homo sapiens, UniProt P08183)
FAR Quotient (%): 12.94%
--
SUBSTANCE_SMILES: Cl.O=C1NC(N2CCOCC2)=N/C1=C\c1ccc(-c2ccccc2)cc1
MEASURED_TARGET: ABCB1 efflux pump (Homo sapiens, UniProt P08183)
FAR Quotient (%): 7.09%

*Q* Please report the recorded FAR Quotient (%) for NC1=N/C(=C\c2ccc(-c3ccccc3)cc2)C(=O)N1CCN1CCOCC1 .
*A* 6.48%

*Q* What value of FAR Quotient (%) has been reported for the following molecule? Cl.O=C1N=C(N2CCN(CCN3CCOCC3)CC2)N/C1=C\c1ccc(-c2ccccc2)cc1
*A* 12.58%
